Entry source: the supplement of paper PMC11061612

tested on: HPAC (Pancreatic Carcinoma); assay: combination Emax (second highest fraction inhibited in the dose matrix, 72 h); higher = more inhibition; extreme values may be limits of the assay
Response key: Y means combination Emax >= 0.6; N means combination Emax < 0.6.

Cn1cnc2c(F)c(Nc3ccc(Br)cc3Cl)c(C(=O)NOCCO)cc21 [Selumetinib] + CC(C)n1c(=O)n(C)c2cnc3cc(F)c(-c4ccc(OCCCN5CCCCC5)nc4)cc3c21 [AZD1390] (first compound max 10 µM, 7x7, partner max 0.3 µM) ... Y

Note: attention shifts to another entry.
Tell me whether combination Emax is at least 0.6 here: COc1cccc(OCCCN)c1-c1cc(Nc2cnc(C#N)cn2)n[nH]1 [Prexasertib] + Cc1cc2ncnn2cc1Nc1ncc2c(n1)n(C1CCOCC1)c(=O)n2C [AZD7648] (first compound max 1 µM, 7x7, partner max 10 µM)
Y

====

system: MFH-ino (Other Solid Carcinomas); assay: Bliss excess, mean over the matrix (fraction); higher = more synergy;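 also: after 72 h of two-drug dosing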
QUANTITY_KIND: Bliss excess
Give bare numbers.

Illustrative cases are given below, each with its answer.
CN(CCO)CC[C@H](CSc1ccccc1)Nc1ccc(S(=O)(=O)NC(=O)c2ccc(N3CCC([C@@H](O)c4ccccc4-c4ccc(Cl)cc4)CC3)cc2)cc1S(=O)(=O)C(F)(F)F [AZD4320] + C1CN(CCC1(C(=O)N[C@@H](CCO)C2=CC=C(C=C2)Cl)N)C3=NC=NC4=C3C=CN4 [Capivasertib] (first compound max 1 µM, 7x7, partner max 3 µM) ... -0.0527
C[C@@H](Oc1cc(-c2cnn(C3CCNCC3)c2)cnc1N)c1c(Cl)ccc(F)c1Cl [Crizotinib] + CC1=C(C(=CC=C1)Cl)NC(=O)C2=CN=C(S2)NC3=CC(=NC(=N3)C)N4CCN(CC4)CCO [Dasatinib] (first compound max 10 µM, 7x7, partner max 2 µM) ... 0.0577
Cc1c2c(nn1C)CSCc1cc(n(C)n1)CSc1cc(c3ccccc3c1)OCCCc1c(C(=O)O)n(C)c3c-2c(Cl)ccc13 [AZD5991] + C=CCn1c(=O)c2cnc(Nc3ccc(N4CCN(C)CC4)cc3)nc2n1-c1cccc(C(C)(C)O)n1 [AZD1775] (first compound max 1 µM, partner max 1 µM) ... 0.0604
O=C(c1cc(Cc2n[nH]c(=O)c3ccccc23)ccc1F)N1CCN(C(=O)C2CC2)CC1 [Olaparib] + COc1nnc2ccc(N3CCC(c4ccc(OCCN5CCN(C)C(=O)[C@H]5C)cc4)CC3)nn12 [AZD5153] (first compound max 10 µM, 7x7, partner max 1 µM) ... -0.07
CN(CCO)CC[C@H](CSc1ccccc1)Nc1ccc(S(=O)(=O)NC(=O)c2ccc(N3CCC([C@@H](O)c4ccccc4-c4ccc(Cl)cc4)CC3)cc2)cc1S(=O)(=O)C(F)(F)F [AZD4320] + CC(=O)O[C@H]1C(=O)[C@@]2(C)[C@H]([C@H](OC(=O)c3ccccc3)[C@]3(O)C[C@H](OC(=O)[C@H](O)[C@@H](NC(=O)c4ccccc4)c4ccccc4)C(C)=C1C3(C)C)[C@]1(OC(C)=O)CO[C@@H]1C[C@@H]2O [Paclitaxel] (first compound max 1 µM, 7x7, partner max 3 µM) ... 0.0474

Shift focus to the following entry.
For NC1(C(=O)N[C@@H](CCO)c2ccc(Cl)cc2)CCN(c2ncnc3[nH]ccc23)CC1 [Capivasertib] + COc1nnc2ccc(N3CCC(c4ccc(OCCN5CCN(C)C(=O)[C@H]5C)cc4)CC3)nn12 [AZD5153] (first compound max 10 µM, 7x7, partner max 1 µM) , write its Bliss excess.
0.0006
